Tested on: up to 32 different microorganisms
Assay: in vitro antibacterial activity (MIC), agar dilution on Brain Heart Infusion (BHI) agar with Steers replicator
Type: cell-based
Conditions: Staphylococcus aureus CMX 553 (code FF); unit assumed
Would you mind telling me the reported MIC of each entry?
Dear colleague, please return just the value in µg/mL, with no unit written.

# MIC (compound: "CC[C@H]1OC(=O)[C@H](C)C(=O)[C@H](C)[C@@H](O[C@@H]2O[C@H](C)C[C@H](N(C)C)[C@H]2O)[C@@](C)(OCc2ccc3ccccc3c2)C[C@@H](C)C(=O)[C@H](C)[C@@H](O)[C@]1(C)O" ) is 12.5

# MIC (compound: "CC[C@H]1OC(=O)[C@H](C)C(=O)[C@H](C)[C@@H](O[C@@H]2O[C@H](C)C[C@H](N(C)C)[C@H]2O)[C@@](C)(OCCCc2cnc3ccccc3c2)C[C@@H](C)C2=NCCN3C(=O)O[C@@]1(C)[C@H]3[C@H]2C" ) is 0.05

# MIC (compound: "CC[C@H]1OC(=O)[C@H](C)C(=O)[C@H](C)[C@@H](O[C@@H]2O[C@H](C)C[C@H](N(C)C)[C@H]2O)[C@@](C)(OCC=Cc2ccc(OC)cc2)C[C@@H](C)C(=O)[C@H](C)[C@@H](O)[C@]1(C)O" ) is 1.56

# MIC (compound: CCC1OC(=O)C(C)C(=O)C(C)C(OC2OC(C)CC(N(C)C)C2O)C(C)(OCC=Cc2ccc3ncccc3c2)CC(C)C(=O)C(C)C2NC(=O)OC12C (stereo not shown) ) is 0.05

----------
Test system: up to 32 different microorganisms
Assay: in vitro antibacterial activity (MIC), agar dilution on Brain Heart Infusion (BHI) agar with Steers replicator
Type: cell-based
Conditions: Streptococcus Pneumonia GYR 1171 (code YY); unit assumed
quantity: MIC (µg/mL)
Dear colleague, please return just the value in µg/mL, with no unit written.

Assay up to 32 different microorganisms, sample CCC1OC(=O)C(C)C(=O)C(C)C(OC2OC(C)CC(N(C)C)C2O)C(C)(OCC=Cc2ccc3[nH]ccc3c2)CC(C)C(=O)C(C)C2NC(=O)OC12C (stereo not shown) [Example 190, R is —CH2CH═CH-(5-indolyl)] , MIC read: 0.03

Assay up to 32 different microorganisms, sample CC[C@H]1OC(=O)[C@H](C)C(=O)[C@H](C)[C@@H](O[C@@H]2O[C@H](C)C[C@H](N(C)C)[C@H]2O)[C@@](C)(OCC=Cc2ccccc2)C[C@@H](C)C(=O)[C@H](C)[C@H]2OC(=O)O[C@@]21C [Example 72] , MIC read: 0.06

Assay up to 32 different microorganisms, sample CCC1OC(=O)C(C)C(=O)C(C)C(OC2OC(C)CC(N(C)C)C2O)C(C)(OCC=Cc2cccnc2)CC(C)C(=O)C(C)C2NC(=O)OC12C (stereo not shown) [Example 185, R is —CH2CH═CH-(3-pyridyl)] , MIC read: 0.03

Assay up to 32 different microorganisms, sample CCC1OC(=O)C(C)C(=O)C(C)C(OC2OC(C)CC(N(C)C)C2O)C(C)(OCC=Cc2ccc3ccccc3c2)CC(C)C(=O)C(C)C2NC(=O)OC12C (stereo not shown) [Example 186, R is —CH2CH═CH-(2-naphthyl)] , MIC read: 0.015

Assay up to 32 different microorganisms, sample CCC1OC(=O)C(C)C(=O)C(C)C(OC2OC(C)CC(N(C)C)C2O)C(C)(OCC=Cc2ccc3c(c2)OCCO3)CC(C)C(=O)C(C)C2NC(=O)OC12C (stereo not shown) [Example 192] , MIC read: 0.03

Assay up to 32 different microorganisms, sample CCC1OC(=O)C(C)C(=O)C(C)C(OC2OC(C)CC(N(C)C)C2O)C(C)(OCC=Cc2cnc3ccc(Cl)cc3c2)CC(C)C(=O)C(C)C2NC(=O)OC12C (stereo not shown) [Example 191, R is —CH2CH═CH-(6-chloro-3-quinolyl)] , MIC read: 0.03

Assay up to 32 different microorganisms, sample CCC1OC(=O)C(C)C(=O)C(C)C(OC2OC(C)CC(N(C)C)C2O)C(C)(OCC=Cc2ccc3c(c2)OCO3)CC(C)C(=O)C(C)C2NC(=O)OC12C (stereo not shown) [Example 188] , MIC read: 0.03

Assay up to 32 different microorganisms, sample CCC1OC(=O)C(C)C(=O)C(C)C(OC2OC(C)CC(N(C)C)C2O)C(C)(OCC=Cc2cnc3ccccc3c2)CC(C)C(=O)C(C)C2N(CC=Cc3cnc4ccccc4c3)C(=O)OC12C (stereo not shown) [Example 184] , MIC read: 0.5

Assay up to 32 different microorganisms, sample CC[C@H]1OC(=O)[C@H](C)C(=O)[C@H](C)[C@@H](O[C@@H]2O[C@H](C)C[C@H](N(C)C)[C@H]2O)[C@@](C)(OCCNCc2ccccc2)C[C@@H](C)C(=O)[C@H](C)[C@@H](O)[C@]1(C)O [Example 9] , MIC read: 0.25

Assay up to 32 different microorganisms, sample CC[C@H]1OC(=O)[C@H](C)C(=O)[C@H](C)[C@@H](O[C@@H]2O[C@H](C)C[C@H](N(C)C)[C@H]2O)[C@@](C)(OCCCc2ccccc2)C[C@@H](C)C(=O)[C@H](C)[C@@H](O)[C@]1(C)O [Example 15] , MIC read: 1
